Entries below carry reported Ki on Nociceptin receptor (Homo sapiens, UniProt P41146).
Sequence (P41146 whole entry): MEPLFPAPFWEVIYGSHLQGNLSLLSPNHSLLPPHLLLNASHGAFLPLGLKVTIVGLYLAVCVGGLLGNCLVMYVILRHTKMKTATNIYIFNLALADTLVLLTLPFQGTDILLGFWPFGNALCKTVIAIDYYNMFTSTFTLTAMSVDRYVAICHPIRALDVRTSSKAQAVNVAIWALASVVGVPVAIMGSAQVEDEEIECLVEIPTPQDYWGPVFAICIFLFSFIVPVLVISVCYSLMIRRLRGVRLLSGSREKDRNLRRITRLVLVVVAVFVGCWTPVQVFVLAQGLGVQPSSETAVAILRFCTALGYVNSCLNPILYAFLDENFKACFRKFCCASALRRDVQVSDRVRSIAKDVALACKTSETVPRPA
Numbers only, in nM.

CC(c1ccccc1)N1CC[C@H]1[C@@H](N)c1cccc(Cl)c1 (stereo not given in full); 1060

Each molecule below has a recorded value; state its Ki.
1. N[C@H](c1cccc(Cl)c1)[C@@H]1CCN1C(c1cccc(Cl)c1)c1cccc(Cl)c1
2. N[C@H](c1cccc(C(F)(F)F)c1)[C@H]1CCN1C(c1ccccc1)c1ccccc1
3. CCCCCC(c1ccccc1)N1CC[C@H]1[C@H](N)c1cccc(Cl)c1 (stereo not given in full)
4. CCC(c1ccccc1)N1CC[C@H]1[C@H](N)c1cccc(Cl)c1 (stereo not given in full)
5. CCCC(c1ccccc1)N1CC[C@H]1[C@H](N)c1cccc(Cl)c1 (stereo not given in full)
6. N[C@@H](c1cccc(C(F)(F)F)c1)[C@@H]1CCN1C(c1ccccc1)c1ccccc1 (stereo in doubt; (+\-)-1)
7. N[C@H](c1cccc(Cl)c1)[C@@H]1CCN1C(c1ccc(Cl)cc1)c1ccc(Cl)cc1

420
14
34
94
79
31
3220

Each molecule below has a recorded value; state its Ki.
1. CCCCCCC(c1ccccc1)N1CC[C@H]1[C@@H](N)c1cccc(Cl)c1 (stereo not given in full)
2. CCCCC(c1ccccc1)N1CC[C@H]1[C@@H](N)c1cccc(Cl)c1 (stereo not given in full)

1. 1020
2. 745
